test: total protein half-life in vivo (active degradation + dilution); higher = more stable protein; conditions: wild type E. coli NCM3722; growth: C-lim chemostat; doubling time 3 h
OUTCOME_MEASURE: total protein half-life in vivo (h)
Express it in h; write the number only.

Entry MPLLDIRNLTIEFKTGDEWVKAVDRVSMTLTEGEIRGLVGESGSGKSLIAKAICGVNKDNWRVTADRMRFDDIDLLRLSARERRKLVGHNVSMIFQEPQSCLDPSERVGRQLMQNIPAWTYKGRWWQRFGWRKRRAIELLHRVGIKDHKDAMRSFPYELTEGECQKVMIAIALANQPRLLIADEPTNSMEPTTQAQIFRLLTRLNQNSNTTILLISHDLQMLSQWADKINVLYCGQTVETAPSKELVTMPHHPYTQALIRAIPDFGSAMPHKSRLNTLPGAIPLLEQLPIGCRLGPRCPYAQRECIVTPRLTGAKNHLYACHFPLNMEKE [P0AAH4] : reported total protein half-life in vivo = ?
2.86

Now this one: MIIYLHGFDSNSPGNHEKVLQLQFIDPDVRLISYSTRHPKHDMQHLLKEVDKMLQLNVDERPLICGVGLGGYWAERIGFLCDIRQVIFNPNLFPYENMEGKIDRPEEYADIATKCVTNFREKNRDRCLVILSRNDEALNSQRTSEELHHYYEIVWDEEQTHKFKNISPHLQRIKAFKTLG [P0A8E1]
2.64

What do we get for MQFDWSAIWPAIPLLIEGAKMTLWISVLGLAGGLVIGLLAGFARTFGGWIANHVALVFIEVIRGTPIVVQVMFIYFALPMAFNDLRIDPFTAAVVTIMINSGAYIAEITRGAVLSIHKGFREAGLALGLSRWETIRYVILPLALRRMLPPLGNQWIISIKDTSLFIVIGVAELTRQGQEIIAGNFRALEIWSAVAVFYLIITLVLSFILRRLERRMKIL [P0AEQ6] ?
3.22

Likewise for MLILISPAKTLDYQSPLTTTRYTLPELLDNSQQLIHEARKLTPPQISTLMRISDKLAGINAARFHDWQPDFTPANARQAILAFKGDVYTGLQAETFSEDDFDFAQQHLRMLSGLYGVLRPLDLMQPYRLEMGIRLENARGKDLYQFWGDIITNKLNEALAAQGDNVVINLASDEYFKSVKPKKLNAEIIKPVFLDEKNGKFKIISFYAKKARGLMSRFIIENRLTKPEQLTGFNSEGYFFDEDSSSNGELVFKRYEQR [P0A8I3] ?
2.66

Moving on to MNLHEYQAKQLFARYGLPAPVGYACTTPREAEEAASKIGAGPWVVKCQVHAGGRGKAGGVKVVNSKEDIRAFAENWLGKRLVTYQTDANGQPVNQILVEAATDIAKELYLGAVVDRSSRRVVFMASTEGGVEIEKVAEETPHLIHKVALDPLTGPMPYQGRELAFKLGLEGKLVQQFTKIFMGLATIFLERDLALIEINPLVITKQGDLICLDGKLGADGNALFRQPDLREMRDQSQEDPREAQAAQWELNYVALDGNIGCMVNGAGLAMGTMDIVKLHGGEPANFLDVGGGATKERVTEAFKIILSDDKVKAVLVNIFGGIVRCDLIADGIIGAVAEVGVNVPVVVRLEGNNAELGAKKLADSGLNIIAAKGLTDAAQQVVAAVEGK [P0A836]
3.08

Query MPELPEVETSRRGIEPHLVGATILHAVVRNGRLRWPVSEEIYRLSDQPVLSVQRRAKYLLLELPEGWIIIHLGMSGSLRILPEELPPEKHDHVDLVMSNGKVLRYTDPRRFGAWLWTKELEGHNVLTHLGPEPLSDDFNGEYLHQKCAKKKTAIKPWLMDNKLVVGVGNIYASESLFAAGIHPDRLASSLSLAECELLARVIKAVLLRSIEQGGTTLKDFLQSDGKPGYFAQELQVYGRKGEPCRVCGTPIVATKHAQRATFYCRQCQK next
2.58

Consider next the sequence MSTLGHQYDNSLVSNAFGFLRLPMNFQPYDSDADWVITGVPFDMATSGRAGGRHGPAAIRQVSTNLAWEHNRFPWNFDMRERLNVVDCGDLVYAFGDAREMSEKLQAHAEKLLAAGKRMLSFGGDHFVTLPLLRAHAKHFGKMALVHFDAHTDTYANGCEFDHGTMFYTAPKEGLIDPNHSVQIGIRTEFDKDNGFTVLDACQVNDRSVDDVIAQVKQIVGDMPVYLTFDIDCLDPAFAPGTGTPVIGGLTSDRAIKLVRGLKDLNIVGMDVVEVAPAYDQSEITALAAATLALEMLYIQAAKKGE in the same way.
2.9

Note, next up: MKNSKAILQVPGTMKIISAEIPVPKEDEVLIKVEYVGICGSDVHGFESGPFIPPKDPNQEIGLGHECAGTVVAVGSRVRKFKPGDRVNIEPGVPCGHCRYCLEGKYNICPDVDFMATQPNYRGALTHYLCHPESFTYKLPDNMDTMEGALVEPAAVGMHAAMLADVKPGKKIIILGAGCIGLMTLQACKCLGATEIAVVDVLEKRLAMAEQLGATVVINGAKEDTIARCQQFTEDMGADIVFETAGSAVTVKQAPYLVMRGGKIMIVGTVPGDSAINFLKINREVTIQTVFRYANRYPVTIEAISSGRFDVKSMVTHIYDYRDVQQAFEESVNNKRDIIKGVIKISD
2.63

Try this sequence too: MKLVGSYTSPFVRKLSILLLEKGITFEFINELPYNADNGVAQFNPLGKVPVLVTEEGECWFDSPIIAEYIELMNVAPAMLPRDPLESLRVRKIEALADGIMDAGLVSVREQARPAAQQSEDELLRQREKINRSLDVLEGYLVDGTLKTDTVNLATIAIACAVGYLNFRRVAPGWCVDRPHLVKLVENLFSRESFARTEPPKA [P0ACA1]
3.22

Follow-up entry: MTIKLIVGLANPGAEYAATRHNAGAWFVDLLAERLRAPLREEAKFFGYTSRVTLGGEDVRLLVPTTFMNLSGKAVAAMASFFRINPDEILVAHDELDLPPGVAKFKLGGGHGGHNGLKDIISKLGNNPNFHRLRIGIGHPGDKNKVVGFVLGKPPVSEQKLIDEAIDEAARCTEMWFTDGLTKATNRLHAFKAQ [P0A7D1]
3.19

###

assay: total protein half-life in vivo (active degradation + dilution); higher = more stable protein; conditions: wild type E. coli NCM3722; growth: P-lim chemostat; doubling time 12 h
OUTCOME_MEASURE: total protein half-life in vivo (h)
Give the value, in units of h, as a plain number.

Item under review: MKKIACLSALAAVLAFTAGTSVAATSTVTGGYAQSDAQGQMNKMGGFNLKYRYEEDNSPLGVIGSFTYTEKSRTASSGDYNKNQYYGITAGPAYRINDWASIYGVVGVGYGKFQTTEYPTYKHDTSDYGFSYGAGLQFNPMENVALDFSYEQSRIRSVDVGTWIAGVGYRF [P0A917] . Reported total protein half-life in vivo?
12.9

Item: MIDYTAAGFTLLQGAHLYAPEDRGICDVLVANGKIIAVASNIPSDIVPNCTVVDLSGQILCPGFIDQHVHLIGGGGEAGPTTRTPEVALSRLTEAGVTSVVGLLGTDSISRHPESLLAKTRALNEEGISAWMLTGAYHVPSRTITGSVEKDVAIIDRVIGVKCAISDHRSAAPDVYHLANMAAESRVGGLLGGKPGVTVFHMGDSKKALQPIYDLLENCDVPISKLLPTHVNRNVPLFEQALEFARKGGTIDITSSIDEPVAPAEGIARAVQAGIPLARVTLSSDGNGSQPFFDDEGNLTHIGVAGFETLLETVQVLVKDYDFSISDALRPLTSSVAGFLNLTGKGEILPGNDADLLVMTPELRIEQVYARGKLMVKDGKACVKGTFETA
13.1

Now consider MENLARFLSTTLKQLRQQRGWSLSRLAEATGVSKAMLGQIERNESSPTVATLWKIATGLNVPFSTFISPPQSATPSVYDPQQQAMVITSLFPYDPQLCFEHFSIQMASGAISESTPHEKGVIEHVVVIDGQLDLCVDGEWQTLNCGEGVRFAADVTHIYRNGGEQTVHFHSLIHYPRS .
9.9

###

experiment: total protein half-life in vivo (active degradation + dilution); higher = more stable protein; conditions: E. coli NCM3722 delta-clpP; growth: N-lim chemostat; doubling time 6 h
OUTCOME_MEASURE: total protein half-life in vivo

Need total protein half-life in vivo of MENYLIDNLDRGILEALMGNARTAYAELAKQFGVSPGTIHVRVEKMKQAGIITGARIDVSPKQLGYDVGCFIGIILKSAKDYPSALAKLESLDEVTEAYYTTGHYSIFIKVMCRSIDALQHVLINKIQTIDEIQSTETLIVLQNPIMRTIKP [P0ACI6] , thanks.
5.95 h

MSKPIVMERGVKYRDADKMALIPVKNVATEREALLRKPEWMKIKLPADSTRIQGIKAAMRKNGLHSVCEEASCPNLAECFNHGTATFMILGAICTRRCPFCDVAHGRPVAPDANEPVKLAQTIADMALRYVVITSVDRDDLRDGGAQHFADCITAIREKSPQIKIETLVPDFRGRMDRALDILTATPPDVFNHNLENVPRIYRQVRPGADYNWSLKLLERFKEAHPEIPTKSGLMVGLGETNEEIIEVMRDLRRHGVTMLTLGQYLQPSRHHLPVQRYVSPDEFDEMKAEALAMGFTHAACGPFVRSSYHADLQAKGMEVK ?
1.56 h

Data provenance is the supplement of paper PMC11246515.
